# key: entry, value: pEC50
system: L. donovani HU3 strain in mouse peritoneal macrophages; experiment: Assay for proliferation of Leishmania parasites in mouse peritoneal macrophages; format: cell-based, Leishmania donovani; conditions: Leishmania donovani, Peritoneal macrophage, read-out: L. donavani Macrophage EC50
pEC50: −log10 of the molar value.
assay metric: pEC50

compound: Cc1cnc2nc(-c3cc(NC(=O)Cn4cncn4)ccc3Cl)[nH]c2c1 [Compound 122]
assay metric: pEC50
modifier: <
result value: 4.30

compound: O=C(Nc1ccc(F)c(-c2nc3ncc(Br)cc3[nH]2)c1)c1cc[nH]n1 [Compound 368]
assay metric: pEC50
modifier: <
result value: 4.30

compound: O=C(Nc1ccc(Cl)c(-c2nc3ncc(C(F)(F)F)cc3[nH]2)c1)c1cnccn1 [Compound 285]
assay metric: pEC50
modifier: =
result value: 5.30

compound: Cc1cnc2nc(-c3cc(NC(=O)C(C)c4ccc(F)cc4)ccc3Cl)[nH]c2c1 (stereo not shown) [Compound 119]
assay metric: pEC50
modifier: =
result value: 4.62

compound: O=C(Nc1ccc(C(F)(F)F)cc1)Nc1ccc(F)c(-c2nc3ncc(-c4ccc(CN5CCOCC5)cc4)cc3o2)c1 [Compound 395]
assay metric: pEC50
modifier: =
result value: 5.17

compound: O=C(Cc1cccc(Cl)c1)Nc1ccc(Cl)c(-c2nc3ncc(C(F)(F)F)cc3[nH]2)c1 [Compound 280]
assay metric: pEC50
modifier: =
result value: 4.56

compound: Cc1cnc2nc(-c3cc(NC(=O)c4ccnnc4)ccc3Cl)[nH]c2c1 [Compound 92]
assay metric: pEC50
modifier: <
result value: 4.30

compound: O=C(Nc1ccc(Cl)c(-c2nc3ncc(-c4ccc5c(c4)OCO5)cc3[nH]2)c1)c1ccco1 [Compound 27]
assay metric: pEC50
modifier: =
result value: 4.61

compound: Nc1ccc(-c2cnc3nc(-c4cc(NC(=O)c5ccco5)ccc4Cl)[nH]c3c2)cn1 [Compound 24]
assay metric: pEC50
modifier: =
result value: 5.54

compound: O=C(Nc1ccc(-c2cnc3nc(-c4cc(NC(=O)c5ccco5)ccc4Cl)[nH]c3c2)cc1)NC1CC1 [Compound 45]
assay metric: pEC50
modifier: =
result value: 5.47

compound: NCc1cnc2nc(-c3cc(NC(=O)c4ccco4)ccc3Cl)[nH]c2c1 [Example 352]
assay metric: pEC50
modifier: =
result value: 4.31

compound: Cc1cnc2nc(-c3cc(NC(=O)c4ccc(S(C)(=O)=O)cc4)ccc3Cl)[nH]c2c1 [Compound 193]
assay metric: pEC50
modifier: <
result value: 4.30

compound: Cc1cnc2nc(-c3cc(NC(=O)c4ccc(Cl)s4)ccc3Cl)[nH]c2c1 [Compound 152]
assay metric: pEC50
modifier: =
result value: 5.35

compound: O=C(Nc1ccc(Cl)c(-c2nc3ncc(Br)cc3[nH]2)c1)C1CCCC1 [Compound 374]
assay metric: pEC50
modifier: =
result value: 5.23

compound: Cc1cnc2nc(-c3cc(NC(=O)c4sc(C)nc4C)ccc3Cl)[nH]c2c1 [Compound 191]
assay metric: pEC50
modifier: <
result value: 4.41

compound: Cc1cnc2nc(-c3cc(NC(=O)c4cnc[nH]4)ccc3Cl)[nH]c2c1 [Compound 128]
assay metric: pEC50
modifier: <
result value: 4.30

---

# key: entry, value: pEC50
tested on: Leishmania donovani axenic amastigote parasites; test: Leishmania donovani axenic amastigote proliferation assay; type: cell-based; settings: axenic amastigotes in vitro, read-out: L. donovani amastigotes EC50
pEC50: −log10 of the molar value.

item smiles: CC(C)(C)c1nnc(C(=O)Nc2ccc(F)c(-c3nc4ncc(Br)cc4o3)c2)o1
modifier: <
pEC50: 4.60
--
item smiles: Cc1cnc2nc(-c3cc(NC(=O)c4ccccc4N(C)C)ccc3Cl)[nH]c2c1
modifier: <
pEC50: 4.60
--
item smiles: Cc1cnc2nc(-c3cc(NC(=O)c4cc(Cl)ccc4Cl)ccc3Cl)[nH]c2c1
modifier: =
pEC50: 4.78
--
item smiles: CN(C)CCOc1ccc(-c2cnc3nc(-c4cc(NC(=O)c5ccco5)ccc4Cl)[nH]c3c2)cc1
modifier: =
pEC50: 4.74
--
item smiles: Cc1cnc2nc(-c3cc(NC(=O)c4ccnc(C)c4)ccc3Cl)[nH]c2c1
modifier: =
pEC50: 5.65
--
item smiles: CNc1ccc(-c2cnc3nc(-c4cc(NC(=O)Nc5ccc(C(F)(F)F)cc5)ccc4F)oc3c2)cc1
modifier: <
pEC50: 4.90
--
item smiles: O=C(Nc1ccc(Cl)c(-c2nc3ncc(-c4cnn(CCN5CCOCC5)c4)cc3[nH]2)c1)c1ccco1
modifier: =
pEC50: 5.43
--
item smiles: O=C(Nc1ccc(Cl)c(-c2nc3ncc(C(F)(F)F)cc3[nH]2)c1)c1cnccn1
modifier: =
pEC50: 6.14

Reference for the values: patent US9233961B2
